conditions: in MIBK, 278.15 K
MEASUREMENT_TYPE: solubility (mole fraction)

Query block: Query (compound): CC1(C)[C@H](C(=O)O)N2C(=O)[C@@H](NC(=O)Cc3ccccc3)[C@H]2S1=O (stereo partly specified) ; field requested: solubility (mole fraction)
Result block: 0.00173

====

conditions: in n-butyl acetate, 292.55 K
MEASUREMENT_TYPE: solubility (mole fraction)

Query block: Query (molecule): CC1(C)[C@H](C(=O)O)N2C(=O)[C@@H](NC(=O)Cc3ccccc3)[C@H]2S1=O (stereo partly specified) ; field requested: solubility (mole fraction)
Result block: 0.000979

====

conditions: in toluene, 311.65 K
MEASUREMENT_TYPE: solubility (mole fraction)

Query block: Query (molecule): CC1(C)[C@H](C(=O)O)N2C(=O)[C@@H](NC(=O)Cc3ccccc3)[C@H]2S1=O (stereo partly specified) ; field requested: solubility (mole fraction)
Result block: 8.7e-05
